- System: TK-10 renal
- assay text: NCI tumour cell line growth inhibition, 48 h; in the data active means GI50 below about 0.43 µM; inactive means the rest
Respond using exactly one of the listed classes: active, inactive

Prompt: Record request — test call for `COc1ccc(/C=C\c2cc(OC)c(OC)c(OC)c2)cc1OCC(=O)Nc1ccc2nc(C)sc2c1`
Response: inactive

Prompt: For this molecule, state the assay outcome: `O=C(CC(=O)c1cccc(Cl)c1)c1cccc(Cl)c1`
Response: inactive

Prompt: Hi team, can someone confirm the assay call for `CCOC(=O)c1ccc2c(c1)[n+](=O)c(C(C)=O)c(C(F)(F)F)n2[O-]` ?
Response: inactive

Prompt: Assay outcome for `CCOC(=O)/C=C/C(=O)[C@H](CC(C)C)NC(=O)[C@H](Cc1ccccc1)NC(=O)OCc1ccccc1` : what was it?
Response: inactive

Prompt: Short answer needed: outcome of this test for `Cc1cn(-c2ccc(S(C)(=O)=O)cc2)c(-c2ccc(Cl)cc2)n1` ?
Response: inactive

Prompt: Which outcome was entered for the molecule CNS(=O)(=O)OCC1OC(n2cnc3c(N)ncnc32)C(O)C1O (centres undefined) in this test?
Response: inactive

Prompt: What classification did `O=S(=O)(Nc1ccc(F)c(Cl)c1)c1ccc(-c2cnc(C3CC3)o2)cc1` end up with in this test?
Response: inactive

Prompt: Dear colleague, could you share the recorded outcome for `COc1ccccc1NS(=O)(=O)c1ccc2oc(SC(C)C)nc2c1` when you have a moment?
Response: inactive

Prompt: Given `Cc1c(C(N)=O)sc2c1c(=O)n(Cc1ccccc1)c1nnc(-c3ccc(Br)cc3)n21` , state the outcome it received in this test.
Response: inactive

Prompt: Identify the outcome logged in this assay for the molecule shown: COc1ccc(C2C=C(c3ccc(Cl)cc3)N=C3SC=C(C)N32)c(Br)c1 (centres undefined)
Response: inactive

Prompt: // return assay outcome for `O=C(C[P+](c1ccccc1)(c1ccccc1)c1ccccc1)C[P+](c1ccccc1)(c1ccccc1)c1ccccc1`
Response: active

Prompt: Would you mind telling me which call this test gave `CC1=C[C@H]2C[C@H](C)[C@H]3CC[C@H](C)[C@]4(C1)C(=O)C(O)=C(C)C(=O)[C@@]324` ?
Response: inactive

Prompt: In this assay, the call recorded for `COc1cc(/C=C/c2cc(/C=C/c3ccc(O)c(OC)c3)n(C(=O)Nc3ccc(Cl)cc3)n2)ccc1O` was what?
Response: inactive

Prompt: For `N#CN1CC[C@H](C(=O)Nc2cc3cc(C(N)=O)ccc3cn2)C1` , what call appears in the results of this test?
Response: active
